B1: Flag-CNK^2–549 [Drosophila] / GST-HYP [Drosophila] (parent complex)
chain 1: AYINIAEWTPDQVTDWIKGLDESMKGYLYEFSKQEIGGRALLNIRPYELENLGMLRIGHQEIVLEAVENLRNFHYHLKNDNLQFMALHVATAAKNLHRELARNHAESTKIDTRILHDITRTIATLKPLVGSLERTPFRKQEMYREYCGNVLKCGLELATIAHRDRFALQPVPAIRQSAERLENLANFVIQDISDPMVLQPASLNLVTLKKRESELGFNIESSYNGIHRVTDIKYNSPAHNSGKIEDGDEIVQINYQTVVGWQHRTVLEHLREALPDVVLTVKKRPKHTKMFGQIYMQPYRLPSKKRNMAARWAAQMPSPRAAFLTLDTEQLATGGTGSAVPDPSKSLSSEKREVLTKANPVSSASDSDSSCSDIPTPTDPKLAAREIRLYYPKPRALLQRRNTICGCEYLSLKNSDLVVPSWHERKPGIGSPTNCDPGSPSIRDKSISFGYGLEMAARPTTCIGIAGDTSTDKARRMFHEARKLKQLTEDSQREFLVDRYKPGVSKVVRFDAKEDYVMKNEKFICNVENTILETFEPIPFADEGDEDA
chain 2: MGEETINSTQNKTRTKTTRPKAVYLWTVSDVLKWYRRHCGEYTQYEQLFAQHDITGRALLRITDSSLQRMGVTDNRDREAIWREIVKQRLKTDIMEIRDMERLNIY

# Variants of: B1
# Protocol Description: GST pull-down, immunoblot quantification; S2 cells; GST-HYP, V5-KSR, Myc-MEK co-expressed; anti-Flag (CNK) blot; parent: 1
Test Readout: ratio to parent

- Mutant Name: "chain 1 L267R"
  ratio to parent: 0.85
- Mutant Name: "chain 1 T135F"
  ratio to parent: 0.84
- Mutant Name: "chain 1 R264E"
  ratio to parent: 0.68
- Mutant Name: "chain 1 A40F"
  ratio to parent: 0.79

1: chain 1 M196E
2: chain 1 H263A
Could you please tell me which of these two has the higher ratio to parent: 1 or 2 ? Answer by quoting the chosen item's label. 2
(2: 0.95, 1: 0.65)

Sourced from paper PMC11257983
